Please provide measured switch fluorescence ratio for the entries that follow.
# System: ATP;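 also: ATP exposure 15 min at 22 °C before imaging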
# Test Details: switch fluorescence ratio, 500 uM ATP over buffer (Cy3 cluster intensity, sum of 5 cycles each) (fold (ratio)); higher = stronger signal-on switching upon ATP binding; sequences stand for … in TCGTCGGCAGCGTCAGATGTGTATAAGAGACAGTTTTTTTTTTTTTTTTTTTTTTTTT…TC
# Experimental Conditions: aptamer strand: ATP DNA aptamer (quencher-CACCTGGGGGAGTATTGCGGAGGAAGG + anchor), 100 nM annealed; ATP concentration: 500 uM
Output spec: single numeric token, no unit.

Q) Return value of switch fluorescence ratio for input `TTTGGTTTTG` , no commentary.
A) 0.995

Q) Retrieve switch fluorescence ratio measured for `TGGGGGAGG` and print it.
A) 0.997

Q) Look up and state reported switch fluorescence ratio for `TGCGGTAAAA`
A) 1.03
